All values here come from ChEMBL document CHEMBL3351748.

system: Mus musculus; test: Anticonvulsant activity in Kunming mouse assessed as protection against MES-induced seizures at 30 mg/kg, ip after 0.5 hrs by MES test; type: functional, organism-based; set-up: dose 30 mg/kg
The source made the active and inactive calls. No cut-off for these calls is given here.
Hi there, use one of these labels in your reply, thanks! active, inactive

moleculeSmiles: CCCCCCn1cnc2c(-n3cncn3)ncnc21
systemName: Mus musculus
discreteLabel: inactive

moleculeSmiles: Fc1ccc(Cn2cnc3c2ncn2cnnc32)cc1
systemName: Mus musculus
discreteLabel: inactive

moleculeSmiles: Fc1cccc(Cn2cnc3c2ncn2cnnc32)c1
systemName: Mus musculus
discreteLabel: inactive

moleculeSmiles: CCCCCCCn1cnc2c(-n3cncn3)ncnc21
systemName: Mus musculus
discreteLabel: active

Recorded test outcome, item c1ccc(Cn2cnc3c(-n4cncn4)ncnc32)cc1
inactive

---

assay: Toxicity in ip dosed Kunming mouse assessed as inability of animal to maintain equilibrium on rod for at least 1 min in each trial by rotarod test; assay type: organism-based; conditions: in vivo
observable: TD50 at 1 min (mg/kg)
Give just the numeric value; mg/kg need not be written.

Field: example entries. Status: answers known.
moleculeSmiles: CCCCCCn1cnc2c(-n3cncn3)ncnc21
TD50 at 1 min (mg/kg): 210

moleculeSmiles: CCCCCCCCCCn1cnc2c(-n3cnc(C)c3)ncnc21
TD50 at 1 min (mg/kg): 196

moleculeSmiles: Clc1ccccc1Cn1cnc2c1ncn1cnnc21
TD50 at 1 min (mg/kg): 315

moleculeSmiles: c1ccc(Cn2cnc3c(-n4cncn4)ncnc32)cc1
TD50 at 1 min (mg/kg): 315

moleculeSmiles: CCCCCCCCn1cnc2c(-n3cncn3)ncnc21
TD50 at 1 min (mg/kg): 247

moleculeSmiles: Clc1cccc(Cn2cnc3c(-n4cncn4)ncnc32)c1
TD50 at 1 min (mg/kg): 488

moleculeSmiles: Fc1ccccc1Cn1cnc2c(-n3ccnc3)ncnc21
TD50 at 1 min (mg/kg): 115

moleculeSmiles: CCCCCCCn1cnc2c(-n3cncn3)ncnc21
TD50 at 1 min (mg/kg): 105

Item: Fc1ccccc1Cn1cnc2c(-n3cncn3)ncnc21 | TD50 at 1 min: 449

Item: CCCCCCCCCCn1cnc2c(-n3cccn3)ncnc21 | TD50 at 1 min: 241

Item: Fc1cccc(Cn2cnc3c(-n4cncn4)ncnc32)c1 | TD50 at 1 min: 384

Item: CCCCCCn1cnc2c1ncn1cnnc21 | TD50 at 1 min: 102

---

system: Mus musculus; assay: Protective index, ratio of intraperitoneal neurotoxic TD50 against Kunming mouse by rotarod test to intraperitoneal anticonvulsant ED50 in Kunming mouse by MES test
In plain terms, low Ratio TD50/ED50, meaning strictly below 6, gives Met, and everything else gives Not met.

Use these answered entries as a reference point.
compound: CCCCCCn1cnc2c1ncn1cnnc21
discreteLabel: Met
//
compound: Fc1ccccc1Cn1cnc2c(-n3ccnc3)ncnc21
discreteLabel: Met
//
compound: c1ccc(Cn2cnc3c(-n4cncn4)ncnc32)cc1
discreteLabel: Met
//
compound: CCCCCCCCCCn1cnc2c(-n3cnc(C)c3)ncnc21
discreteLabel: Met
//
compound: Clc1cccc(Cn2cnc3c(-n4cncn4)ncnc32)c1
discreteLabel: Not met
//
compound: CCCCCCn1cnc2c(-n3cncn3)ncnc21
discreteLabel: Met
//
compound: Fc1cccc(Cn2cnc3c(-n4cncn4)ncnc32)c1
discreteLabel: Not met
//
compound: CCCCCCCCn1cnc2c(-n3cncn3)ncnc21
discreteLabel: Not met

Strictly below 6 in Ratio TD50/ED50? NC(=O)N1c2ccccc2C=Cc2ccccc21 [CARBAMAZEPINE]
Not met

Strictly below 6 in Ratio TD50/ED50? CCCCCCCn1cnc2c(-n3cncn3)ncnc21
Met

Strictly below 6 in Ratio TD50/ED50? Fc1ccccc1Cn1cnc2c(-n3cncn3)ncnc21
Not met

Strictly below 6 in Ratio TD50/ED50? CCCCCCCCCCn1cnc2c(-n3cccn3)ncnc21
Met

Strictly below 6 in Ratio TD50/ED50? CCCCCCCCCCn1cnc2c(-n3cncn3)ncnc21
Not met
